molecular target: UniProt P0DTD1; assay: SARS-CoV-2 3CLP inhibition, FRET-based cleavage assay; format: biochemical; details: 80 nM SARS-CoV-2 3CLP, 100 μM substrate, 37° C., 10 min incubation, pH 7.8; read-out: 3CL Protease IC50
IC50 less than 200 nM is rule met; IC50 greater than or equal to 200 nM is rule not met.

# molecule, measurement_target, category_label
rows = [
    ("CC(C)C[C@H](NCC1Cc2ccccc2O1)C(=O)N[C@H](C#N)C[C@@H]1CCCNC1=O (single isomer, unassigned) [Compound 97]", "UniProt P0DTD1", "rule not met"),
    ("CC(C)C[C@H](NS(=O)(=O)c1cccc2c1OCCO2)C(=O)N[C@H](C#N)C[C@@H]1CCCNC1=O", "UniProt P0DTD1", "rule not met"),
    ("COc1cccc2[nH]c(C(=O)N[C@@H](CC(C)C)C(=O)N[C@@H](C[C@@H]3CCCNC3=O)C(=O)COC(=O)c3c(C(F)(F)F)cccc3C(F)(F)F)cc12", "UniProt P0DTD1", "rule met"),
    ("COc1cccc2[nH]c(C(=O)N[C@@H](CC(C)C)C(=O)N[C@@H](C[C@@H]3CCCNC3=O)C(=O)COC(=O)c3cccnc3)cc12", "UniProt P0DTD1", "rule met"),
    ("COc1cc(Cl)cc2[nH]c(C(=O)N[C@@H](CC(C)C)C(=O)N[C@H](C#N)C[C@@H]3CCCNC3=O)cc12", "UniProt P0DTD1", "rule met"),
    ("COc1cccc2[nH]c(C(=O)N[C@@H](CC(C)C)C(=O)N[C@@H](C[C@@H]3CCCNC3=O)C(=O)COC(=O)C3(C)COC(C)(C)OC3)cc12", "UniProt P0DTD1", "rule met"),
    ("Cc1ccc(C(=O)N[C@@H](CC(C)C)C(=O)N[C@H](C#N)C[C@@H]2CCCNC2=O)cn1", "UniProt P0DTD1", "rule not met"),
    ("COc1cccc2[nH]c(C(=O)N[C@@H](CC(C)C)C(=O)N[C@H](C#N)C[C@@H]3CCCNC3=O)cc12", "UniProt P0DTD1", "rule met"),
    ("N#C[C@H](C[C@@H]1CCNC1=O)NC(=O)[C@H](CC1CCCCC1)NC(=O)OCc1cccc(Cl)c1", "UniProt P0DTD1", "rule met"),
    ("COc1nccc2[nH]c(C(=O)N[C@@H](CC(C)(C)C)C(=O)N[C@H](C#N)C[C@@H]3CCCNC3=O)cc12", "UniProt P0DTD1", "rule met"),
    ("COc1nccc2c1cc(C(=O)N[C@@H](CC(C)(C)C)C(=O)N[C@H](C#N)C[C@@H]1CCCNC1=O)n2C", "UniProt P0DTD1", "rule not met"),
    ("COc1cccc2[nH]c(C(=O)N[C@@H](CC(C)C)C(=O)N[C@@H](C[C@@H]3CCCNC3=O)C(=O)COC(=O)C(C)(C)C)cc12", "UniProt P0DTD1", "rule met"),
    ("COc1cccc2oc(C(=O)N[C@@H](CC(C)(C)C)C(=O)N[C@H](C#N)C[C@@H]3CCCNC3=O)cc12", "UniProt P0DTD1", "rule not met"),
    ("Cc1ccc(S(=O)(=O)N[C@@H](CC(C)C)C(=O)N[C@H](C#N)C[C@@H]2CCCNC2=O)cn1", "UniProt P0DTD1", "rule not met"),
    ("CC(C)C[C@H](NS(=O)(=O)N1CCCCC1)C(=O)N[C@H](C#N)C[C@@H]1CCCNC1=O", "UniProt P0DTD1", "rule not met"),
    ("COc1cccc2[nH]c(C(=O)N[C@@H](CC(C)C)C(=O)N[C@@H](C[C@@H]3CCNC3=O)C(=O)COC(=O)c3c(C(F)(F)F)cc(C)nc3C)cc12", "UniProt P0DTD1", "rule met"),
    ("CC(C)C[C@H](NS(=O)(=O)C1CCCCC1)C(=O)N[C@H](C#N)C[C@@H]1CCCNC1=O", "UniProt P0DTD1", "rule not met"),
    ("COc1cccc2[nH]c(C(=O)N[C@@H](CC(C)C)C(=O)N[C@@H](C[C@@H]3CCCNC3=O)C(=O)COc3ccc(S(C)(=O)=O)cc3)cc12", "UniProt P0DTD1", "rule met"),
    ("CC(C)C[C@H](NC(=O)OCc1ccccc1)C(=O)N[C@H](C#N)C[C@@H]1CCCNC1=O", "UniProt P0DTD1", "rule not met"),
    ("CC(C)C[C@H](NC(=O)c1nc(-c2ccccc2)c[nH]1)C(=O)N[C@H](C#N)C[C@@H]1CCCNC1=O", "UniProt P0DTD1", "rule met"),
    ("CC(C)(C)C[C@H](NC(=O)c1nc2ccccc2[nH]1)C(=O)N[C@H](C#N)C[C@@H]1CCCNC1=O", "UniProt P0DTD1", "rule met"),
    ("COc1cccc2[nH]c(C(=O)N[C@@H](CC(C)C)C(=O)N[C@@H](C[C@@H]3CCCNC3=O)C(=O)COC(=O)c3ccccc3)cc12", "UniProt P0DTD1", "rule met"),
    ("COc1cccc2[nH]c(C(=O)N[C@@H](CC(C)C)C(=O)N[C@@H](C[C@@H]3CCNC3=O)C(=O)COC(=O)C(C)(C)C(F)(F)F)cc12", "UniProt P0DTD1", "rule met"),
    ("CC(C)C[C@H](NC(=O)[C@H]1CCCO1)C(=O)N[C@@H](C[C@@H]1CCNC1=O)C(=O)COC(=O)c1c(C(F)(F)F)cccc1C(F)(F)F", "UniProt P0DTD1", "rule met"),
    ("CC(C)(C)C[C@H](NC(=O)OCC1c2ccccc2-c2ccccc21)C(=O)N[C@H](C#N)C[C@@H]1CCCNC1=O", "UniProt P0DTD1", "rule met"),
]

###

system: SARS-CoV-2; assay: SARS-CoV-2 in vitro plaque reduction assay in Vero E6 cells; assay type: cell-based; settings: Severe acute respiratory syndrome coronavirus 2, Vero C1008, MOI 0.0001 pfu/cell, plaques counted after 48 h, >5 μM = did not reduce plaque numbers by half at 10 μM, read-out: SARS-CoV-2 Antiviral EC50
Readings of EC50 for the listed compounds

# compound, EC50
rows = [
    ("COc1cccc2[nH]c(C(=O)N[C@@H](CC(C)C)C(=O)N[C@@H](C[C@@H]3CCCNC3=O)C(=O)COC(=O)c3ccccc3)cc12", "> 5 µM"),
    ("COc1cccc2[nH]c(C(=O)N[C@@H](CC(C)C)C(=O)N[C@@H](C[C@@H]3CCCNC3=O)C(=O)COC(=O)C(C)(C)C)cc12", "> 5 µM"),
    ("COc1nccc2c1cc(C(=O)N[C@@H](CC(C)(C)C)C(=O)N[C@H](C#N)C[C@@H]1CCCNC1=O)n2C", "> 5 µM"),
    ("CC(C)C[C@H](NCc1ncco1)C(=O)N[C@H](C#N)C[C@@H]1CCCNC1=O", "> 5 µM"),
    ("CC(C)C[C@H](NS(=O)(=O)c1cccc2c1OCCO2)C(=O)N[C@H](C#N)C[C@@H]1CCCNC1=O", "> 5 µM"),
    ("CCOc1cccc2[nH]c(C(=O)N[C@@H](CC(C)C)C(=O)N[C@H](C#N)C[C@@H]3CCCNC3=O)cc12", "4.8 µM"),
    ("Cc1ccc(C(=O)N[C@@H](CC(C)C)C(=O)N[C@H](C#N)C[C@@H]2CCCNC2=O)cn1", "> 5 µM"),
    ("CC(C)C[C@H](NC(=O)[C@@H]1C[C@H]1c1ccccc1)C(=O)N[C@H](C#N)C[C@@H]1CCCNC1=O", "> 5 µM"),
    ("COc1cccc2[nH]c(C(=O)N[C@@H](CC(C)C)C(=O)N[C@@H](C[C@@H]3CCCNC3=O)C(=O)COC(=O)C3(C)COC(C)(C)OC3)cc12", "> 5 µM"),
    ("CC(C)(C)C[C@H](NC(=O)[C@@H]1CCCN1)C(=O)N[C@H](C#N)C[C@@H]1CCCNC1=O", "> 5 µM"),
    ("Cc1cc(C)c(C(=O)OCC(=O)[C@H](C[C@@H]2CCCNC2=O)NC(=O)[C@H](CC(C)(C)C)NC(=O)[C@H]2CCCO2)c(C)n1", "1.9 µM"),
    ("COc1cccc2[nH]c(C(=O)N[C@@H](CC(C)C)C(=O)N[C@@H](C[C@@H]3CCCNC3=O)C(=O)COC(=O)C3(C#N)CC3)cc12", "> 5 µM"),
    ("CC(C)C[C@H](NC(=O)c1cc2c(OC(F)(F)F)cccc2[nH]1)C(=O)N[C@H](C#N)C[C@@H]1CCCNC1=O", "2.6 µM"),
    ("CC(C)C[C@H](NCC1Cc2ccccc2O1)C(=O)N[C@H](C#N)C[C@@H]1CCCNC1=O (single isomer, unassigned)", "> 5 µM"),
    ("COc1cccc2[nH]c(C(=O)N[C@@H](CC(C)C)C(=O)N[C@@H](C[C@@H]3CCCNC3=O)C(=O)COC(=O)C3(C(F)(F)F)CCCCC3)cc12", "0.71 µM"),
    ("COc1cccc2[nH]c(C(=O)N[C@@H](CC(C)C)C(=O)N[C@@H](C[C@@H]3CCCNC3=O)C(=O)COC(=O)C3(C)OCCCO3)cc12", "> 5 µM"),
    ("CC(C)C[C@H](NC(=O)OCc1ccccc1)C(=O)N[C@H](C#N)C[C@@H]1CCCNC1=O", "> 5 µM"),
    ("CC(C)C[C@H](NC[C@@H]1CCCO1)C(=O)N[C@H](C#N)C[C@@H]1CCCNC1=O", "> 5 µM"),
    ("Cc1ccc(S(=O)(=O)N[C@@H](CC(C)C)C(=O)N[C@H](C#N)C[C@@H]2CCCNC2=O)cn1", "> 5 µM"),
    ("COc1nccc2[nH]c(C(=O)N[C@@H](CC(C)(C)C)C(=O)N[C@H](C#N)C[C@@H]3CCCNC3=O)cc12", "> 5 µM"),
    ("COc1cccc2[nH]c(C(=O)N[C@@H](CC(C)C)C(=O)N[C@@H](C[C@@H]3CCNC3=O)C(=O)COC(=O)c3c(C(F)(F)F)cccc3C(F)(F)F)cc12", "< 0.25 µM"),
    ("CC(C)C[C@H](NCc1ccc[nH]c1=O)C(=O)N[C@H](C#N)C[C@@H]1CCCNC1=O", "> 5 µM"),
    ("COc1cccc2[nH]c(C(=O)N[C@@H](CC(C)C)C(=O)N[C@@H](C[C@@H]3CCCNC3=O)C(=O)COC(=O)C(C)(C)C#N)cc12", "> 5 µM"),
    ("COc1cccc2[nH]c(C(=O)N[C@@H](CC(C)C)C(=O)N[C@@H](C[C@@H]3CCCNC3=O)C(=O)COC(=O)c3cccnc3)cc12", "> 5 µM"),
    ("CC(C)C[C@H](NC(=O)c1cc2c3c(ccc2[nH]1)CCO3)C(=O)N[C@H](C#N)C[C@@H]1CCCNC1=O", "> 5 µM"),
    ("CC(C)C[C@H](NS(=O)(=O)C1CCCCC1)C(=O)N[C@H](C#N)C[C@@H]1CCCNC1=O", "> 5 µM"),
]

Hello, the source for this data is patent US20220204476A1, in case you need it.
